The reader will find reported viability, T/C values listed item by item below.
Test system: 843782-103-R-J1-PDC complex spheroid viability
Assay Details: Anticancer human tumor 843782-103-R-J1-PDC patient-derived lung adenocarcinoma cell line growth inhibition [RAS]
Condition Set: second compound 0.00949 µM; first compound 3.16 µM; active compounds read low
Reported Property: viability, T/C (%)

# Compound, Reported Property, Test Value
records = [
    ("CC1(O)CCCC1n1c(=O)c(C(F)F)cc2cnc(NC3CCN(S(C)(=O)=O)CC3)nc21 (configuration not stated) + CCn1c(-c2cccnc2C(C)OC)c2c3cc(ccc31)N1CCOC(CC(NC(=O)C(C(C)C)N(C)C(=O)C3(F)CCN(C(=O)C#CC(C)(C)N(C)C)CC3)C(=O)N3CCCC(N3)C(=O)OCC(C)(C)C2)C1", "viability, T/C", 15.3),
    ("CC(Nc1ccc2c(c1)OCCn1cc(N3C(=O)OCC3C(F)F)nc1-2)C(N)=O (configuration not stated) + CCn1c(-c2cc(N3CCN(C)CC3)cnc2C(C)OC)c2c3cc(ccc31)-c1csc(n1)CC(NC(=O)C1CC1C)C(=O)N1CCCC(N1)C(=O)OCC(C)(C)C2", "viability, T/C", 9.87),
]

* * *

Tested on: 843782-103-R-J1-PDC complex spheroid viability
Assay Details: Anticancer human tumor 843782-103-R-J1-PDC cell line growth inhibition [RAS];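 also: viability read after seven days of compound exposure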
Condition Set: second compound 0.00316 µM; first compound 0.0316 µM; active compounds read low
Strictly below 90% in viability, T/C: yes. Otherwise: no.

# Compound, Class Label
rows = [
    ("CC(C)n1nc(-c2ccc3oc(N)nc3c2)c2c(N)ncnc21 + C=CC(=O)N1CCN(c2nc(OCC3CCCN3C)nc3c(F)c(-c4nc(N)cc(C)c4C(F)(F)F)c(Cl)cc23)C(C)C1", "yes"),
    ("CCC(CC)c1cc(NC2CCC(N)C2)n2nccc2n1 (stereo not drawn) + C=CC(=O)N1CCN(c2nc(OCC3CCCN3C)nc3c(F)c(-c4nc(N)cc(C)c4C(F)(F)F)c(Cl)cc23)C(C)C1", "no"),
    ("CC(=O)OC12COC1CC(O)C1(C)C(=O)C(O)C3=C(C)C(OC(=O)C(O)C(NC(=O)OC(C)(C)C)c4ccccc4)CC(O)(C(OC(=O)c4ccccc4)C21)C3(C)C (stereo not drawn) + C=CC(=O)N1CCN(c2nc(OCC3CCCN3C)nc3c(F)c(-c4nc(N)cc(C)c4C(F)(F)F)c(Cl)cc23)C(C)C1", "yes"),
    ("Nc1ccn(C2OC(CO)C(O)C2(F)F)c(=O)n1 (stereo not drawn) + C=CC(=O)N1CCN(c2nc(OCC3CCCN3C)nc3c(F)c(-c4nc(N)cc(C)c4C(F)(F)F)c(Cl)cc23)C(C)C1", "yes"),
    ("CC(Nc1ccc2c(c1)OCCn1cc(N3C(=O)OCC3C(F)F)nc1-2)C(N)=O (stereo not drawn) + C=CC(=O)N1CCN(c2nc(OCC3CCCN3C)nc3c(F)c(-c4nc(N)cc(C)c4C(F)(F)F)c(Cl)cc23)C(C)C1", "yes"),
]

* * *

Tested on: 843782-103-R-J1-PDC complex spheroid viability
Assay Details: Anticancer human tumor 843782-103-R-J1-PDC cell line growth inhibition [RAS];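 also: viability read after seven days of compound exposure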
Condition Set: second compound 0.00949 µM; first compound 0.00316 µM; active compounds read low
Excerpt: RAS pathway inhibitors in Combinations in Complex Spheroids A high-throughput screen of multi-cell type tumor spheroids was designed to identify active combinations of RAS pathway inhibitors and targeted small molecules. Complex spheroids include a stromal component modeled by human endothelial cells (HUVEC) and fibroblasts modeled by human mesenchymal stem cells (MSCs). […] Compounds. […] If the clinical Cmax for an agent had not been determined, the highest concentration tested was 10 microM. […]
So basically: is viability, T/C under 60%? Then criterion met. Not under? Then criterion not met.

# Molecule, Target Desc, Class Label
rows = [
    ("CC(C)n1nc(-c2ccc3oc(N)nc3c2)c2c(N)ncnc21 + CCn1c(-c2cccnc2C(C)OC)c2c3cc(ccc31)N1CCOC(CC(NC(=O)C(C(C)C)N(C)C(=O)C3(F)CCN(C(=O)C#CC(C)(C)N(C)C)CC3)C(=O)N3CCCC(N3)C(=O)OCC(C)(C)C2)C1", "843782-103-R-J1-PDC complex spheroid viability", "criterion met"),
    ("CC(C)n1nc(-c2ccc3oc(N)nc3c2)c2c(N)ncnc21 + CCn1c(-c2cc(N3CCN(C)CC3)cnc2C(C)OC)c2c3cc(ccc31)-c1csc(n1)CC(NC(=O)C1CC1C)C(=O)N1CCCC(N1)C(=O)OCC(C)(C)C2", "843782-103-R-J1-PDC complex spheroid viability", "criterion met"),
    ("C=CC(=O)Nc1cc(Nc2nccc(-c3cn(C)c4ccccc34)n2)c(OC)cc1N(C)CCN(C)C + CCn1c(-c2cc(N3CCN(C)CC3)cnc2C(C)OC)c2c3cc(ccc31)-c1csc(n1)CC(NC(=O)C1CC1C)C(=O)N1CCCC(N1)C(=O)OCC(C)(C)C2", "843782-103-R-J1-PDC complex spheroid viability", "criterion met"),
    ("C=CC(=O)N1CCN(c2nc(OCC3CCCN3C)nc3c(F)c(-c4nc(N)cc(C)c4C(F)(F)F)c(Cl)cc23)C(C)C1 (configuration not stated) + CCn1c(-c2cccnc2C(C)OC)c2c3cc(ccc31)N1CCOC(CC(NC(=O)C(C(C)C)N(C)C(=O)C3(F)CCN(C(=O)C#CC(C)(C)N(C)C)CC3)C(=O)N3CCCC(N3)C(=O)OCC(C)(C)C2)C1", "843782-103-R-J1-PDC complex spheroid viability", "criterion not met"),
    ("Nc1ccn(C2OC(CO)C(O)C2(F)F)c(=O)n1 (configuration not stated) + CCn1c(-c2cc(N3CCN(C)CC3)cnc2C(C)OC)c2c3cc(ccc31)-c1csc(n1)CC(NC(=O)C1CC1C)C(=O)N1CCCC(N1)C(=O)OCC(C)(C)C2", "843782-103-R-J1-PDC complex spheroid viability", "criterion met"),
    ("Nc1ccn(C2OC(CO)C(O)C2(F)F)c(=O)n1 (configuration not stated) + CCn1c(-c2cccnc2C(C)OC)c2c3cc(ccc31)N1CCOC(CC(NC(=O)C(C(C)C)N(C)C(=O)C3(F)CCN(C(=O)C#CC(C)(C)N(C)C)CC3)C(=O)N3CCCC(N3)C(=O)OCC(C)(C)C2)C1", "843782-103-R-J1-PDC complex spheroid viability", "criterion not met"),
    ("O=C(c1ccc(F)c(F)c1Nc1ccc(I)cc1F)N1CC(O)([C@@H]2CCCCN2)C1 + CCn1c(-c2cccnc2C(C)OC)c2c3cc(ccc31)N1CCOC(CC(NC(=O)C(C(C)C)N(C)C(=O)C3(F)CCN(C(=O)C#CC(C)(C)N(C)C)CC3)C(=O)N3CCCC(N3)C(=O)OCC(C)(C)C2)C1", "843782-103-R-J1-PDC complex spheroid viability", "criterion not met"),
    ("O=C(c1ccc(F)c(F)c1Nc1ccc(I)cc1F)N1CC(O)([C@@H]2CCCCN2)C1 + CCn1c(-c2cc(N3CCN(C)CC3)cnc2C(C)OC)c2c3cc(ccc31)-c1csc(n1)CC(NC(=O)C1CC1C)C(=O)N1CCCC(N1)C(=O)OCC(C)(C)C2", "843782-103-R-J1-PDC complex spheroid viability", "criterion met"),
    ("CCN1CCN(Cc2ccc(Nc3ncc(F)c(-c4cc(F)c5nc(C)n(C(C)C)c5c4)n3)nc2)CC1 + CCn1c(-c2cccnc2C(C)OC)c2c3cc(ccc31)N1CCOC(CC(NC(=O)C(C(C)C)N(C)C(=O)C3(F)CCN(C(=O)C#CC(C)(C)N(C)C)CC3)C(=O)N3CCCC(N3)C(=O)OCC(C)(C)C2)C1", "843782-103-R-J1-PDC complex spheroid viability", "criterion not met"),
    ("C=CC(=O)Nc1cc(Nc2nccc(-c3cn(C)c4ccccc34)n2)c(OC)cc1N(C)CCN(C)C + CCn1c(-c2cccnc2C(C)OC)c2c3cc(ccc31)N1CCOC(CC(NC(=O)C(C(C)C)N(C)C(=O)C3(F)CCN(C(=O)C#CC(C)(C)N(C)C)CC3)C(=O)N3CCCC(N3)C(=O)OCC(C)(C)C2)C1", "843782-103-R-J1-PDC complex spheroid viability", "criterion not met"),
    ("C=CC(=O)N1CCN(c2nc(OCC3CCCN3C)nc3c(F)c(-c4nc(N)cc(C)c4C(F)(F)F)c(Cl)cc23)C(C)C1 (configuration not stated) + CCn1c(-c2cc(N3CCN(C)CC3)cnc2C(C)OC)c2c3cc(ccc31)-c1csc(n1)CC(NC(=O)C1CC1C)C(=O)N1CCCC(N1)C(=O)OCC(C)(C)C2", "843782-103-R-J1-PDC complex spheroid viability", "criterion met"),
    ("CCN1CCN(Cc2ccc(Nc3ncc(F)c(-c4cc(F)c5nc(C)n(C(C)C)c5c4)n3)nc2)CC1 + CCn1c(-c2cc(N3CCN(C)CC3)cnc2C(C)OC)c2c3cc(ccc31)-c1csc(n1)CC(NC(=O)C1CC1C)C(=O)N1CCCC(N1)C(=O)OCC(C)(C)C2", "843782-103-R-J1-PDC complex spheroid viability", "criterion met"),
]
